B1: EEHEE_rd4_0647 (parent)
chain: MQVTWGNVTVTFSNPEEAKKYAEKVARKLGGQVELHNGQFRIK

variants of: B1; assay: folding stability dG (cDNA display proteolysis); higher = more stable; conditions: PBS, room temperature
Criterion: folding stability dG meeting or surpassing 2 kcal/mol. Met: Condition met. Not met: Condition not met.

INPUT: Can MQVTWGNVTVTFSNPEEGKKYAEKVARKLGGQVELHNGQFRIK [A18G] be said to have folding stability dG at or above 2 kcal/mol?
OUTPUT: Condition not met

INPUT: Can MQVTWGNVTVTFSNPEEAKKYAEKVARALGGQVELHNGQFRIK [K28A] be said to have folding stability dG at or above 2 kcal/mol?
OUTPUT: Condition met

INPUT: Can MQTTWGNVTVTFSNPEEAKKYAEKVARKLGGQVELHNGQFRIK [V3T] be said to have folding stability dG at or above 2 kcal/mol?
OUTPUT: Condition not met

INPUT: Can MQVTWGNVTVTFSNPVEAKKYAEKVARKLGGQVELHNGQFRIK [E16V] be said to have folding stability dG at or above 2 kcal/mol?
OUTPUT: Condition met

INPUT: Can MQVTWGNETVTFSNPEEAKKYAEKVARKLGGQVELHNGQFRIK [V8E] be said to have folding stability dG at or above 2 kcal/mol?
OUTPUT: Condition not met

INPUT: Can MQVTWGNVTVTFSNPEEAKKYADKVARKLGGQVELHNGQFRIK [E23D] be said to have folding stability dG at or above 2 kcal/mol?
OUTPUT: Condition met

INPUT: Can MQVTWGNVTVTFSNPEEFKKYAEKVARKLGGQVELHNGQFRIK [A18F] be said to have folding stability dG at or above 2 kcal/mol?
OUTPUT: Condition not met

INPUT: Can MQVTWGNVTVTFVNPEEAKKYAEKVARKLGGQVELHNGQFRIK [S13V] be said to have folding stability dG at or above 2 kcal/mol?
OUTPUT: Condition met

INPUT: Can MQVTWGNVTVTFSNPEEAKKYAEKVARKLGGQVELHNQQFRIK [G38Q] be said to have folding stability dG at or above 2 kcal/mol?
OUTPUT: Condition not met

INPUT: Can MQVTWGNVTVTFSNTEEAKKYAEKVARKLGGQVELHNGQFRIK [P15T] be said to have folding stability dG at or above 2 kcal/mol?
OUTPUT: Condition met

INPUT: Can MQVTWGNVTVTFSAPEEAKKYAEKVARKLGGQVELHNGQFRIK [N14A] be said to have folding stability dG at or above 2 kcal/mol?
OUTPUT: Condition met

INPUT: Can MQVTWGNVTVTFSNPEEAKKYAEKMARKLGGQVELHNGQFRIK [V25M] be said to have folding stability dG at or above 2 kcal/mol?
OUTPUT: Condition met
